Tested on: human SMAD7 mRNA
Experiment: Antisense inhibition of human SMAD7 mRNA expression in Hep3B cells by 3-10-3 cEt gapmers, 10,000 nM, electroporation (Example 2)
Type: cell-based
Details: Hep3B cells, electroporation with 10,000 nM antisense oligonucleotide, approximately 24 hours, primer probe set RTS5062, relative to untreated control cells
Strand notation (5' to 3'): a small letter for the sugar, then the base; units joined by * are phosphorothioate-linked, units joined directly phosphodiester-linked; [ ] holds rarer units or linkages, { } end groups; capitals alone tell only the bases. k = constrained ethyl (cEt); [5mC] = 5-methylcytosine; d = 2'-deoxy (DNA)

substance	unit.info	% Inhibition
799078 (antisense kA*kT*k[5mC]*d[5mC]*dA*dG*dG*dA*dG*d[5mC]*dA*dG*dA*kT*kG*kG) [compound 799078]	%	19
790617 (k[5mC]*kT*kA*d[5mC]*dA*dA*dT*dG*d[5mC]*dT*dA*dA*dA*kT*kT*kT; antisense) [compound 790617]	%	0
799227 (kG*kA*kA*dA*dA*dA*dA*dA*d[5mC]*dA*d[5mC]*d[5mC]*dA*kA*kT*k[5mC]; antisense) [compound 799227]	%	2
799101 (antisense kG*kG*kA*dA*dA*dA*dA*d[5mC]*d[5mC]*dT*dG*dA*dT*kG*kT*k[5mC]) [compound 799101]	%	55
799037 (k[5mC]*k[5mC]*k[5mC]*d[5mC]*dA*dG*d[5mC]*d[5mC]*dG*d[5mC]*d[5mC]*dA*dG*k[5mC]*kT*kT; antisense) [compound 799037]	%	9
798956 (antisense k[5mC]*kT*kT*dT*dT*d[5mC]*dA*dT*dA*dA*dG*d[5mC]*dT*kA*kT*kT) [compound 798956]	%	22
799034 (k[5mC]*kT*kT*dG*d[5mC]*d[5mC]*d[5mC]*dA*dG*dG*dT*dA*d[5mC]*kT*kG*k[5mC]; antisense) [compound 799034]	%	12
798979 (antisense kG*kT*kG*dT*dT*dT*dG*dG*dT*dG*dG*dT*dG*k[5mC]*kT*kT) [compound 798979]	%	19
799093 (antisense kG*kT*k[5mC]*dA*d[5mC]*d[5mC]*dA*dG*dG*dG*d[5mC]*dA*dG*kG*k[5mC]*kA) [compound 799093]	%	47
799014 (kA*k[5mC]*kA*dT*d[5mC]*d[5mC]*dA*dT*dA*dA*dG*dA*dG*kA*k[5mC]*kA; antisense) [compound 799014]	%	29
799155 (antisense kA*kG*kA*dA*dG*dA*dG*dT*dT*dA*dG*dG*dT*kG*kT*k[5mC]) [compound 799155]	%	32
798982 (antisense k[5mC]*kT*kT*d[5mC]*dA*dT*dA*d[5mC]*dA*d[5mC]*dT*dG*dT*kG*kT*kT) [compound 798982]	%	45
799136 (antisense k[5mC]*kT*kT*d[5mC]*dT*dT*dG*dG*dA*dG*dG*dG*dA*kA*kG*kG) [compound 799136]	%	3

All values here come from patent US10517889B2.
